These data points were gathered from patent US20210275641A1.

# target: T1, human high affinity trimeric IL-2 receptor (CD25/CD122/CD132) (human, UniProt P01589 22-272; P14784 27-551; P31785 23-369)
# T1 sequence 1: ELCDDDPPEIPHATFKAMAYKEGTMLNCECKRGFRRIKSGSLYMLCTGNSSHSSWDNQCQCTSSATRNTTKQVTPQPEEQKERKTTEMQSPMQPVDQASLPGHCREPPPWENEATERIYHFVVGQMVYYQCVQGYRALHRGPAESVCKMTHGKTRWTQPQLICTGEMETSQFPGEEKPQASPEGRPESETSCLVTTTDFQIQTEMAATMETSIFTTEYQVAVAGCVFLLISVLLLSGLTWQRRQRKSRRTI
# T1 sequence 2: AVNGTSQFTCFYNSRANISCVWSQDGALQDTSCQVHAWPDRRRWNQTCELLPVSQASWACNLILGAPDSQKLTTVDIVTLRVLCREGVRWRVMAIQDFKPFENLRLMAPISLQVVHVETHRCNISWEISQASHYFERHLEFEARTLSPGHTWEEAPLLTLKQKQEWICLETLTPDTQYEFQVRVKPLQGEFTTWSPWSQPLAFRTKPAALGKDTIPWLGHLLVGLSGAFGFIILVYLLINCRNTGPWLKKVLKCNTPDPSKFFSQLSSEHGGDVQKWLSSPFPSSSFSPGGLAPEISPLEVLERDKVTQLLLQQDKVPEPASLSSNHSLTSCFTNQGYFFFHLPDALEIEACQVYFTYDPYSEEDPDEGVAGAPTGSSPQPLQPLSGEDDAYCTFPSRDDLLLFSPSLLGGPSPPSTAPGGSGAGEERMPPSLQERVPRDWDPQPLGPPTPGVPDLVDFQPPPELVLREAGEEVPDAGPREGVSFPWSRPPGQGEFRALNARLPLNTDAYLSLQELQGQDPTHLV
# T1 sequence 3: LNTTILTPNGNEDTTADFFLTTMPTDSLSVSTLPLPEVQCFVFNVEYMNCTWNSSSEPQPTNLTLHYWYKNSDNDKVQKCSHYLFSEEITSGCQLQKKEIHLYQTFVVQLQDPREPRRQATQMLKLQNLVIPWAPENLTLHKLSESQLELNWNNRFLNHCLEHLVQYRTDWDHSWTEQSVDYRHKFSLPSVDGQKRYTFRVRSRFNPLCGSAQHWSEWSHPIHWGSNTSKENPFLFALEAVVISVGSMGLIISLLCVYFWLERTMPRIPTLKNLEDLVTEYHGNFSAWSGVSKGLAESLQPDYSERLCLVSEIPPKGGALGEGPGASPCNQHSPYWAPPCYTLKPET
# experiment.summary: cell-based or functional assay
readout.label: pSTAT5 ratio YT CD25/YT, dilution factor 8, upper table

Guide cases for pSTAT5 ratio YT CD25/YT, dilution factor 8, upper table, answers given:
# binder, result.number
measured = [
    ("FEH (ligand) cytokine: APTSSSTKKTQLQLEHLFLDLEMILNGINNYKNPKLTRMLTFKFYMPKKATELKHLQCLEEELKPLEEVLNLAQSKNFHLRPRDLISNINVIVLELKGSETTFMCEYADETATIVEFLNRWITFCHSIISTLT", 1.3),
    ("SEH (ligand) cytokine: APTSSSTKKTQLQLEHLSLDLEMILNGINNYKNPKLTRMLTFKFYMPKKATELKHLQCLEEELKPLEEVLNLAQSKNFHLRPRDLISNINVIVLELKGSETTFMCEYADETATIVEFLNRWITFCHSIISTLT", 2.5),
]

A: VEH (ligand) cytokine: APTSSSTKKTQLQLEHLVLDLEMILNGINNYKNPKLTRMLTFKFYMPKKATELKHLQCLEEELKPLEEVLNLAQSKNFHLRPRDLISNINVIVLELKGSETTFMCEYADETATIVEFLNRWITFCHSIISTLT
B: KEH (ligand) cytokine: APTSSSTKKTQLQLEHLKLDLEMILNGINNYKNPKLTRMLTFKFYMPKKATELKHLQCLEEELKPLEEVLNLAQSKNFHLRPRDLISNINVIVLELKGSETTFMCEYADETATIVEFLNRWITFCHSIISTLT
Hi, I'm comparing A with B and wondering which one has the bigger number for pSTAT5 ratio YT CD25/YT, dilution factor 8, upper table. Any idea? Pick one and reply with its label.
A
